The reported numbers originate from BindingDB's records for doi:10.1021/acsmedchemlett.1c00391.

Assign log10 of EC50 to each entry below.
PROTOCOL_SUMMARY: Inhibition of HCV genotype 1a NS5A infected in HuH-7-Luc/Neo-ET cells assessed as reduction in viral replication measured by Luciferase reporter gene assay
Friendly reminder: values = log10 of EC50, unit nM.

Example results:
COC(=O)N[C@H](C(=O)N1CCC[C@H]1c1ncc(-c2ccc(-c3ccc(-c4cnc([C@@H]5CC[C@H]6CCC[C@@H](NC(=O)OC)C(=O)N65)[nH]4)cc3)cc2)[nH]1)C(C)C -0.17
COC(=O)N[C@H](C(=O)N1CC2(C[C@H]1c1ncc(-c3ccc(-c4ccc(-c5cnc([C@@H]6CC[C@@H]7CCC[C@H](N(C)C)C(=O)N76)[nH]5)cc4)cc3)[nH]1)OCCO2)C(C)C 1.51
COC(=O)N[C@H](C(=O)N1CC2(C[C@H]1c1ncc(-c3ccc(-c4ccc(-c5cnc([C@@H]6CC[C@@H]7CCC[C@@H](NC(=O)OC)C(=O)N76)[nH]5)cc4)cc3)[nH]1)OCCO2)C(C)C 1.18
COC(=O)N[C@H](C(=O)N1CCC[C@H]1c1nc(-c2ccc(-c3ccc(-c4c[nH]c([C@@H]5CCCN5C(=O)[C@@H](NC(=O)OC)C(C)C)n4)cc3)cc2)c[nH]1)C(C)C -1.10
COC(=O)N[C@H](C(=O)N1CC2(C[C@H]1c1ncc(-c3ccc(-c4ccc(-c5cnc([C@@H]6CC[C@H]7CCC[C@@H](N(C)C)C(=O)N76)[nH]5)cc4)cc3)[nH]1)OCCO2)C(C)C 1.04

Next, consider the following molecule.
Request: Looking for the measured log10 of EC50 of `COC(=O)N[C@H](C(=O)N1CC2(C[C@H]1c1ncc(-c3ccc(-c4ccc(-c5cnc([C@@H]6CC[C@H]7CCC[C@H](N(C)C)C(=O)N76)[nH]5)cc4)cc3)[nH]1)OCCO2)C(C)C` , can you help?
Result: 0.89
